Data credit: patent EP0434364A2

Listing of recorded IC50 by entry.
Target: CCK Receptor (Pancreas) (Rattus norvegicus, UniProt P30551)
Construct: The whole pancreas was dissected free of fat tissue and was homogenized; from tissue; host or cells: rat whole pancreas membranes
Sequence (P30551 whole entry): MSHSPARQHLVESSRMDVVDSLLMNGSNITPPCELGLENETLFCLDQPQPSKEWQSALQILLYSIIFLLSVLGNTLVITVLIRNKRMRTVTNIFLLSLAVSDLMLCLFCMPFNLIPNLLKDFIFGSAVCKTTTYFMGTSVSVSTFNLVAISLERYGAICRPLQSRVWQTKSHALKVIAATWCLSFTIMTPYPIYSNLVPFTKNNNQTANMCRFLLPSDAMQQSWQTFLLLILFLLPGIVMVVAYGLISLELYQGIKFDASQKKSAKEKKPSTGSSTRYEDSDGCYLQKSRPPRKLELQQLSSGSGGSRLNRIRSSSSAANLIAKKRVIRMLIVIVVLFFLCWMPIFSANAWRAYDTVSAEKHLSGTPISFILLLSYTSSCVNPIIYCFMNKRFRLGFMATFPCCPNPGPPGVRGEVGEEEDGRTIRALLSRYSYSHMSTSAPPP
Assay: CCK Receptor Binding (Pancreas), inhibition of 125I-CCK-33 binding
Parameters: species or system Sprague-Dawley rats
Entry rule: numbers only, all in nM.

molecule	unitSymbol	IC50
Cc1cccc(NC(=O)N[C@H]2N=C(c3ccccc3)c3ccccc3N(C)C2=O)c1	nM	4.1

In: Which IC50 is reported for this molecule? CN1C(=O)C(NC(=O)c2cc3ccccc3[nH]2)N=C(c2ccncc2)c2ccccc21 (racemic)
Out: 6.8

In: Also CN1C(=O)[C@@H](NC(=O)c2cc3cc(O)ccc3[nH]2)N=C(c2ccccc2)c2ccccc21 ?
Out: 3.3

In: Also CN1C(=O)C(NC(=O)Nc2ccc3c(c2)CCC3)N=C(c2ccccc2)c2ccccc21 (racemic) ?
Out: 75
